FYI, the data here is from patent US20220273759A1.

Let's look at some binders and their measured p-Smad1/5/8 (%).
- tested_on: growth factor receptors
- method: cell-based or functional assay
Dear colleague, please return just the value in %, with no unit written.

>  <binder>
NDEGLESVPTEEEPLTILYY [GFR-binding compound of SEQ ID NO: 79]

>  <p-Smad1/5/8 (%)>
58

$$$$
>  <binder>
KIPKASSVPQELEPLPIVYY [GFR-binding compound of SEQ ID NO: 74]

>  <p-Smad1/5/8 (%)>
44

$$$$
>  <binder>
KIPKASSVPTELSPISVLYK [GFR-binding compound of SEQ ID NO: 87]

>  <p-Smad1/5/8 (%)>
32

$$$$

Now, please, on to the next binder.
Query: Provide one value: measured p-Smad1/5/8 (%) of KVGKASSVPTKLEPISILYL [GFR-binding compound of SEQ ID NO: 71]
Result: 66
